# assay-target: Solute carrier organic anion transporter family member 1A1 (Rattus norvegicus)
# Sequence (P46720 whole entry): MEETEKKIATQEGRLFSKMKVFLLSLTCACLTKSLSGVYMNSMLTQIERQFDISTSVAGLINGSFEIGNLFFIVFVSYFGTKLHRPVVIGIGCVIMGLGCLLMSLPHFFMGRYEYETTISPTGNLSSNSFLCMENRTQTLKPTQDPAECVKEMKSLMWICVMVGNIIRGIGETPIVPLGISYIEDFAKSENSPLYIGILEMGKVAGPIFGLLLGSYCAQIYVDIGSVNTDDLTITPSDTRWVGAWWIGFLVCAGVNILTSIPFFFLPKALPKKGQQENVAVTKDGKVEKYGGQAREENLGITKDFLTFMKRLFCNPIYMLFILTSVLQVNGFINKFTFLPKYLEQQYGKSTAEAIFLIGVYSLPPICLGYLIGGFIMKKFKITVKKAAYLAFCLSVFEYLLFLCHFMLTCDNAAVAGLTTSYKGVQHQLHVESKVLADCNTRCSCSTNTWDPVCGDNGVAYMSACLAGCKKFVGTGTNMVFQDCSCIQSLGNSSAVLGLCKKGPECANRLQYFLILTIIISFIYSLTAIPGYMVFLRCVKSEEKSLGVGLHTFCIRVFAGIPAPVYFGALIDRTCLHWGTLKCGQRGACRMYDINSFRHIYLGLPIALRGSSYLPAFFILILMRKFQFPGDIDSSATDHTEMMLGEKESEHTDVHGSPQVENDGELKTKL
# measurement-protocol: TP_TRANSPORTER: inhibition of BSP uptake (BSP: 1 uM, Bilirubin: 10 uM) in Xenopus laevis oocytes
# Assay type: functional, cell-based, Oocyte
# study-conditions: probe BSP
endpoint-name: inhibition at 10 µM (%)
Numbers only, in %.

Lookup: Query: inhibition at 10 µM; subject: C=CC1=C(C)/C(=C/c2[nH]c(Cc3[nH]c(/C=C4\NC(=O)C(C)=C4C=C)c(C)c3CCC(=O)O)c(CCC(=O)O)c2C)NC1=O
Found: 43

====

# assay-target: Solute carrier organic anion transporter family member 1A1 (Rattus norvegicus)
# measurement-protocol: TP_TRANSPORTER: inhibition of BSP uptake (BSP: 2 uM, Probenecid: 1000 uM) in Xenopus laevis oocytes
# Assay type: functional, cell-based, Oocyte
# study-conditions: probe BSP
endpoint-name: inhibition at 1000 µM

Lookup: Request: inhibition at 1000 µM, test system Solute carrier organic anion transporter family member 1A1 (Rattus norvegicus), entry CCCN(CCC)S(=O)(=O)c1ccc(C(=O)O)cc1
Found: 74%
